Measured On: T1, EsCas13d, nuclease-dead (Eubacterium siraeum, UniProt B0MS50, R295A;H300A;R849A;H854A)
T1 sequence: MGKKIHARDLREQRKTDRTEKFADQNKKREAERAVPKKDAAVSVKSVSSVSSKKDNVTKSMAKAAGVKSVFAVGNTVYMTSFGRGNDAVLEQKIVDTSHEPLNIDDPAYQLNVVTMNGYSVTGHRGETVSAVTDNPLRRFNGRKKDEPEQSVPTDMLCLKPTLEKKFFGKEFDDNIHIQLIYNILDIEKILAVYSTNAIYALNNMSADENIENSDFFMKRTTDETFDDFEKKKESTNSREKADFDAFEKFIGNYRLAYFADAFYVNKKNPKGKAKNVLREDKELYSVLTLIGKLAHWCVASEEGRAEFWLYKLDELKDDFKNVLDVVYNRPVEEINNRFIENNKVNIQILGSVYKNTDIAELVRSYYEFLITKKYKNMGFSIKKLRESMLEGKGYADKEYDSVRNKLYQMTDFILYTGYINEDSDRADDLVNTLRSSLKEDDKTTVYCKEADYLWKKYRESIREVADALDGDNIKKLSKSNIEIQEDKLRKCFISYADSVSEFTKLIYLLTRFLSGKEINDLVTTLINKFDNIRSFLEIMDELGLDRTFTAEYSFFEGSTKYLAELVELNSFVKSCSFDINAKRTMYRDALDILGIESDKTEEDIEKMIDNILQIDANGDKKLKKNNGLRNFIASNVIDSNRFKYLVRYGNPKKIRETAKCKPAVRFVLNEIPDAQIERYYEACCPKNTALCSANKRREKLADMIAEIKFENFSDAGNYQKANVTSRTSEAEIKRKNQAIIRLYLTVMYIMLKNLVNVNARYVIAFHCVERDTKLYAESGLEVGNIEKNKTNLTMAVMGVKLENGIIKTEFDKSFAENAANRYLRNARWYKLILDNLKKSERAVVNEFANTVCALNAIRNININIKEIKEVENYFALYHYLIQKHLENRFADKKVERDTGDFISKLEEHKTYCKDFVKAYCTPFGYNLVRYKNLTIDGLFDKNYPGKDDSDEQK
Method Description: crRNA (strand 1, pre-loaded); Mg2+; 40 mM Tris-HCl pH 7.5, 150 mM NaCl, 6 mM MgCl2, 1 mM DTT, 0.1% Tween-20, 0.2 mg/ml BSA; 25 C; 10 min per concentration, then washed
Condition Notes: tags: His6-TwinStrep-SUMO cleaved; N-terminal SNAP kept (SNAP-Surface 488); label: 3' end held by stalled T7 RNA polymerase
log10 of Kd values, listed per item
Give log10 of Kd, with Kd taken in nM.

Example cases with answers are listed next.
target 3 C1A,A5U (mixed) RNA 1: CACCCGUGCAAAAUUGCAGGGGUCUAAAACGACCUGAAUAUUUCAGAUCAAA RNA 2: GGGAAUGGAUCCACAUCUACGAAUUCGUUUUUGAUCUGAAAUAUUCUGGUAUGCAGAUCGGAAGAGCACACGU ... 0.77
target 2 MT 5'PFS UGU 3'PFS ACA (mixed) RNA 1: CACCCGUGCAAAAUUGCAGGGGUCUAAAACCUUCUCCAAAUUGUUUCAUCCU RNA 2: GGGAAUGGAUCCACAUCUACGAAUUCUGUAGGAUGAAACAAUUUGGAGAAGACAAGAUCGGAAGAGCACACGU ... 1.17
target 1 MT 5'PFS GGA 3'PFS AGC (mixed) RNA 1: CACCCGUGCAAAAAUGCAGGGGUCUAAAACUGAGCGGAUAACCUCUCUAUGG RNA 2: GGGAAUGGAUCCACAUCUACGAAUUCGGACCAUAGAGAGGUUAUCCGCUCAAGCAGAUCGGAAGAGCACACGU ... 1.19

What value of measured log10 of Kd is listed for target 2 MT 5'PFS AGU 3'PFS AUU (mixed) RNA 1: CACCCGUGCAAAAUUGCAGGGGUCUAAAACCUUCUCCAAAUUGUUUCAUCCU RNA 2: GGGAAUGGAUCCACAUCUACGAAUUCAGUAGGAUGAAACAAUUUGGAGAAGAUUAGAUCGGAAGAGCACACGU ?
1.08

Consider the binder target 1 MT 5'PFS GUG 3'PFS UUU (mixed) RNA 1: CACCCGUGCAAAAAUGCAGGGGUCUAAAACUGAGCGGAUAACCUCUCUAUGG RNA 2: GGGAAUGGAUCCACAUCUACGAAUUCGUGCCAUAGAGAGGUUAUCCGCUCAUUUAGAUCGGAAGAGCACACGU and give its measured log10 of Kd.
0.96

Fill blank: measured log10 of Kd of the binder target 1 insA 3' of 7 (mixed) RNA 1: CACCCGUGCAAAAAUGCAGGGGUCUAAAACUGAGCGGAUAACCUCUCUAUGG RNA 2: GGGAAUGGAUCCACAUCUACGAAUUCGUACCAUAGAGAGGUUAUCACGCUCACCGAGAUCGGAAGAGCACACGU is ____.
0.74

Requested read-out: log10 of Kd. Entry: target 1 insC 3' of 13,insG 3' of 1 (mixed) RNA 1: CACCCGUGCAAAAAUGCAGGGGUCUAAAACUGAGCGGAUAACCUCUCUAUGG RNA 2: GGGAAUGGAUCCACAUCUACGAAUUCGUACCAUAGAGAGCGUUAUCCGCUCAGCCGAGAUCGGAAGAGCACACGU
0.96

# log10 of Kd lookup, item target 1 C6U,A14C (mixed) RNA 1: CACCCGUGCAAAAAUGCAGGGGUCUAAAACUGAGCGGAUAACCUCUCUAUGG RNA 2: GGGAAUGGAUCCACAUCUACGAAUUCGUACCAUAGAGCGGUUAUCUGCUCACCGAGAUCGGAAGAGCACACGU
1.30

Endpoint output: log10 of Kd of target 3 C6A,A11C (mixed) RNA 1: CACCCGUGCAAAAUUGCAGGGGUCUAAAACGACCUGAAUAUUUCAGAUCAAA RNA 2: GGGAAUGGAUCCACAUCUACGAAUUCGUUUUUGAUCUGAACUAUUAAGGUCUGCAGAUCGGAAGAGCACACGU . Value?
1.66

What measured log10 of Kd goes with target 1 U3C,G5U (mixed) RNA 1: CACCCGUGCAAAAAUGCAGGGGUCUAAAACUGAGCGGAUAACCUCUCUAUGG RNA 2: GGGAAUGGAUCCACAUCUACGAAUUCGUACCAUAGAGAGGUUAUCCUCCCACCGAGAUCGGAAGAGCACACGU ?
1.62

I'd like to know its log10 of Kd. The binder in question is target 2 MT 5'PFS AAU 3'PFS AAA (mixed) RNA 1: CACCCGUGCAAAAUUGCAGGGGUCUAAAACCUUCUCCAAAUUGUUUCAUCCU RNA 2: GGGAAUGGAUCCACAUCUACGAAUUCAAUAGGAUGAAACAAUUUGGAGAAGAAAAGAUCGGAAGAGCACACGU
0.51

What value of measured log10 of Kd is listed for target 1 MT 5'PFS CCU 3'PFS CAU (mixed) RNA 1: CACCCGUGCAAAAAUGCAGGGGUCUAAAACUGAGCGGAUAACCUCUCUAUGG RNA 2: GGGAAUGGAUCCACAUCUACGAAUUCCCUCCAUAGAGAGGUUAUCCGCUCACAUAGAUCGGAAGAGCACACGU ?
1.13

Requested read-out: log10 of Kd. Entry: target 1 MT 5'PFS UUA 3'PFS UUC (mixed) RNA 1: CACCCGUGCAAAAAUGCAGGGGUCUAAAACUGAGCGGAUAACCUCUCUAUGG RNA 2: GGGAAUGGAUCCACAUCUACGAAUUCUUACCAUAGAGAGGUUAUCCGCUCAUUCAGAUCGGAAGAGCACACGU
1.24

Name the recorded log10 of Kd for target 3 U2G,U22A (mixed) RNA 1: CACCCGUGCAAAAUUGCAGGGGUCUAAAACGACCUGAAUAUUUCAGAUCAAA RNA 2: GGGAAUGGAUCCACAUCUACGAAUUCGUUAUUGAUCUGAAAUAUUCAGGGCUGCAGAUCGGAAGAGCACACGU .
1.41
